B1: TPR t1 (parent)
chain: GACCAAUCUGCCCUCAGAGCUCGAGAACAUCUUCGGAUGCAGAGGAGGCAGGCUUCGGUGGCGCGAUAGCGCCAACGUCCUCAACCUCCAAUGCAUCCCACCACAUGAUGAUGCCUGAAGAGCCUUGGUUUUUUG

- Variants of: B1
- ASSAY: polymerase ribozyme fitness, log enrichment relative to wild type (log ratio); higher = more active; in vitro selection for triplet polymerase activity
PARAMETER: polymerase ribozyme fitness (log ratio)
The answer should be a number; do not append a unit.

### Prompt Item GACCAUUCUGCCCUCAGAGCUCGAGAACAUCUUCGGAUGCAGAGGAGGCAGGCUUCGGUGGCGCGAUAGCGCCAACGUCCUCAACCUCCAAUGCAUCCCACAACAUGAUGAUGCCUGAAGAGGCUUGGUUUUUUG [A6U C102A C123G] has what recorded polymerase ribozyme fitness (log ratio)?
### Response -0.023

### Prompt Repeat for the following variant: GACCAAUCUGCCCUCAGAGCUCGGGAACAUCUUCGGAUGCAGAGGAGGCAGGCUUCGGUGGCGCGAUAUCGCCAACGUCCUCAACCUCCAAUGCAUCCCUCCACAUGAUGAUGCCUGAAGAGCCUUGGUUUUUUG [A24G G69U A100U]
### Response -1.09

### Prompt What do you get for GACCAAUCUGCCCUCAGAGCUCGAGAACAUCUUCGGAUGCAGAGGAGGGAGGCUUCGGUGGCGCGAUAGCGCCAACGUCCUCAACCUCCAAUGCAUCCCACCACAUGAUGAUGCCUGAAGAGCGUUGGUUUUUUG [C49G C124G] ?
### Response 1.58

### Prompt Further, for GACCAAUCUGCACUCAGAGCUCGAGAACAUCUUCGGAUGCAGAGGAGGCAGACUUCGGUGGCGCGAUAGCGCCAACGUCCUCAACCUCCAGUGCAUCCCACCACAUGAUGAUGCCUGAAGAGCCUUGGUUUUUUG [C12A G52A A91G] ?
### Response -1.2

### Prompt GACCAAUCUGCCCUCAGAGCUCGAGAACAUCUUCGGAUGCAGAGGUGGCAGGCUUCGGUGGCGCGAUAGCGCCAACGUCCUCAACCUCCAAUGCAUCCCACCACAUGAUGAUGCCUGAAUAGCCUUGGUUUUUUG [A46U G120U] , same question.
### Response -0.451

### Prompt How about GACCAAUCGGCCCUCAGAGCUCGAGAACAUCUUCGGAUGCAGAGGAGGCAGGCUUCAGUGGCGCGAUAGCGCCAACGUACUCAACCUCCAAUGCAUCCCACCACAUGAUGAUGCCUGAAGAGCCUUGGUUUUUUG [U9G G57A C79A] ?
### Response -1.03

### Prompt Same question for GACCAAGCUGCCCUCAGAGCUCGAGAACAUCUUCGGAUGCAGAGGAGGCAGACUUCGGUGGCGCGAUAGCGCCAACGUCCUCAACCUCCAAUGCAUCCCACCACACGAUGAUGCCUGAAGAUCCUUGGUUGUUUG [U7G G52A U106C G122U U131G] please.
### Response -0.951

### Prompt And for GACCAAUCUGCCCUCAGAGCUCGAGAACAUUUUCGGGUGCAGAGGAGGCAGGCUUCGGUGGCGCGAUAGCGCCAACGUCCUCAACCUCCAAUGCAUCCCACCACAUGAUGAUGCAUGAAGAGCCUUGGUUUUUUG [C31U A37G C115A] ?
### Response -4.73

### Prompt Repeat with GACCAAUCUGCCCUCAGAGCUCGAGGACAUCUUCGGAUGCAGAGGAGGCAGGCUUCGGUGGCGCGAUAGCGCCAACGUCCUCAACCUCCAAUGGAUCCCACCACCUGAUGAUGCCUGAAGAGGCUUGGUUUUUUG [A26G C94G A105C C123G]
### Response -5.27

### Prompt Ok, now GACCACUCUGCCCUCAGAGCUCGAGAACAUCUUCGGAUGCAGAGGAGGCAGGCUUCGGUGGCGCGAUAGCGCCAACGUCCUCAACCUCCAAUGCAUCCCACCACAUGAUGAUACCUGAAGAGCCUUGGUUUUUUG [A6C G113A]
### Response -1.23

### Prompt Queued: GACCAAUCUGCCCUUAGAGCUCGAGAACAUCUUCGAAUGCAGAGGAGGCAGGCUUCGGUGGCGCGAUAGCGCCAACGUCCUCAACCUCCAAUGCAUCCCACCACAUGAUGAUGCCUGAAGCGCCUUGGUUUUUUG [C15U G36A A121C]
### Response 0.213
